// reported IC50 per item
SUBJECT OF TEST: IDO1 (Homo sapiens, UniProt P14902)
Construct: HeLa cells in which IDO1 expression is induced by IFN-γ; endogenous in cells; host or cells: HeLa cells stimulated with human recombinant IFN-γ
Sequence (P14902 whole entry): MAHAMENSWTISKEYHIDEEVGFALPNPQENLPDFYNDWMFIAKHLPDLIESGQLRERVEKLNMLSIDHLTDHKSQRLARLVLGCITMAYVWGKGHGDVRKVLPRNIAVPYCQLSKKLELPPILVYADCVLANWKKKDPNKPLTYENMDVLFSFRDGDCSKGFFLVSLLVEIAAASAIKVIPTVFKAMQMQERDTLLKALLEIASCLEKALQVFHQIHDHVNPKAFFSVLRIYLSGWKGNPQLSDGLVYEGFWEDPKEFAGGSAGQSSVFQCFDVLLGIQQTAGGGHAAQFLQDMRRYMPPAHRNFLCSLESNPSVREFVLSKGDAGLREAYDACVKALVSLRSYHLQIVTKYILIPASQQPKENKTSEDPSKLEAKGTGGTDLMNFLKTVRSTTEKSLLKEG
RUN DESCRIPTION: Cellular IDO1 Inhibition Assay (L-kynurenine production by IFN-γ-stimulated HeLa cells)
Format: cell-based
CONDITION LABEL: IDO1 induced by IFN-γ, 250 μM L-tryptophan, 48 hours, L-kynurenine by Ehrlich's reagent, maximal concentration 40 μM

Examples with their reported IC50 follow.
INSERT INTO assay_data (molecule, experimental_result) VALUES
  ('Cc1cc(Cl)cc(C)c1Nc1cnn[nH]1 [Compound I-15]', '100 to 1000 nM'),
  ('CC(=O)NCc1cc(Cl)ccc1Nc1cnn[nH]1 [Compound I-20]', '100 to 1000 nM'),
  ('Cc1c(Cl)cccc1Nc1cnn[nH]1 [Compound I-39]', '100 to 1000 nM'),
  ('Clc1ccc(Nc2cnn[nH]2)cn1 [Compound I-22]', '1000 to 40000 nM');

Input: Read the entry CCc1cc(Cl)ccc1Nc1cnn[nH]1 [Compound I-1] and write its reported IC50.
Output: < 100 nM

Input: Read the entry Fc1cc(Cl)ccc1Nc1cnn[nH]1 [Compound I-30] and write its reported IC50.
Output: 1000 to 40000 nM

###

SUBJECT OF TEST: IDO1 (Homo sapiens, UniProt P14902)
Construct: HeLa cells in which IDO1 expression is induced by IFN-γ; endogenous in cells
RUN DESCRIPTION: Cellular IDO1 Inhibition Assay (L-kynurenine production by IFN-γ-stimulated HeLa cells)
CONDITION LABEL: IDO1 induced by IFN-γ, 250 μM L-tryptophan, 48 hours, L-kynurenine by Ehrlich's reagent, maximal concentration 40 μM
pIC50: −log10 of the molar value.
RECORDED ENDPOINT: pIC50

Examples with their reported pIC50 follow.
INSERT INTO measurements (molecule, experimental_result) VALUES
  ('Clc1ccc(Nc2cnn[nH]2)cc1Cl [Compound I-19]', '6.00 to 7.00'),
  ('Brc1cccc(Nc2cn[nH]n2)c1 [Compound I-37]', '6.00 to 7.00'),
  ('COc1cc(Cl)ccc1Nc1cn[nH]n1 [Compound I-12]', '6.00 to 7.00');

Field: next molecule
Input: Read the entry OCc1cc(Cl)ccc1Nc1cnn[nH]1 [Compound I-9] and write its reported pIC50.
Output: 6.00 to 7.00

###

SUBJECT OF TEST: IDO1 (Homo sapiens, UniProt P14902)
Construct: HeLa cells in which IDO1 expression is induced by IFN-γ; endogenous in cells
RUN DESCRIPTION: Cellular IDO1 Inhibition Assay (L-kynurenine production by IFN-γ-stimulated HeLa cells)
CONDITION LABEL: IDO1 induced by IFN-γ, 250 μM L-tryptophan, 48 hours, L-kynurenine by Ehrlich's reagent, maximal concentration 40 μM
pIC50: −log10 of the molar value.
RECORDED ENDPOINT: pIC50

INSERT INTO assay_data (molecule, experimental_result) VALUES
  ('COc1cc(Nc2cn[nH]n2)ccc1Cl', '6.00 to 7.00'),
  ('Clc1ccc(Nc2cnn[nH]2)c(CCCN2CCOCC2)c1', '6.00 to 7.00'),
  ('Clc1ccc(Nc2cn[nH]n2)c(I)c1', '4.40 to 6.00'),
  ('Clc1ccc(Nc2cn[nH]n2)cc1', '> 7.00');

Input: Read the entry `Fc1ccc(Nc2cnn[nH]2)cc1` and write its reported pIC50.
Output: 6.00 to 7.00
